Target: Apelin receptor (Rattus norvegicus)
Sequence (Q9JHG3 whole entry): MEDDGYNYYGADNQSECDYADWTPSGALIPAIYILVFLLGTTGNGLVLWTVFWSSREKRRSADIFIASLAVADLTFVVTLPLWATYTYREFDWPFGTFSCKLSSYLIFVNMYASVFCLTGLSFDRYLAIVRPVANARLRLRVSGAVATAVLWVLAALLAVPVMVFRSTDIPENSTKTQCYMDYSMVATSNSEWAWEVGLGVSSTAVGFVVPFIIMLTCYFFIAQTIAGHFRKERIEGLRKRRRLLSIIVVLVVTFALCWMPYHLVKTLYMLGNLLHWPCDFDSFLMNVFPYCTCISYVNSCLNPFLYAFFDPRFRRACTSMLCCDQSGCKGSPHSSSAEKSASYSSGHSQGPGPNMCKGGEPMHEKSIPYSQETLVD
Test: Agonist activity at rat APJ receptor expressed in human HEK293 cells assessed as inhibition of forskolin-induced cAMP accumulation incubated for 1 hr by TR-FRET assay
Here, each record is paired with measured EC50 data.

>>> print(df.to_string())
                        structure_as_smiles  quantity_measured  assay_value
0  CCCCc1[nH]c(=O)c(-c2nnc(Cc3ccccc3)o2)c(O)c1-c1c(OC)cccc1OC               EC50        31 nM
1  COCCc1[nH]c(=O)c(-c2nnc(Cc3ccc(Cl)cc3)o2)c(O)c1-c1c(OC)cccc1OC               EC50       1.4 nM
2  CCCCc1[nH]c(=O)c(-c2n[nH]c(Cc3ccccc3)n2)c(O)c1-c1c(OC)cccc1OC               EC50       430 nM
3  CCOCc1nc(O)c(-c2nnc(Cc3ccc(Cl)cc3)o2)c(O)c1-c1c(OC)cccc1OC               EC50      0.23 nM
4  CCCCc1nc(O)c(-c2nnc(Cc3ccccc3Cl)o2)c(O)c1-c1c(OC)cccc1OC               EC50        18 nM

Apelin receptor (Rattus norvegicus) data for CCOCc1nc(O)c(-c2nnc(Cc3ccc(Cl)cn3)o2)c(O)c1-c1c(OC)cccc1OC ; its EC50: 0.024 nM

Apelin receptor (Rattus norvegicus) data for CCCCc1[nH]c(=O)c(-c2nnc(-c3ccc(Cl)cc3)o2)c(O)c1-c1c(OC)cccc1OC ; its EC50: 450 nM

Apelin receptor (Rattus norvegicus) data for COc1cccc(OC)c1-c1c(C2CCCC2)[nH]c(=O)c(-c2nnc(Cc3ccc(Cl)cc3)o2)c1O ; its EC50: 0.51 nM

Apelin receptor (Rattus norvegicus) data for CCCCc1[nH]c(=O)c(-c2nc(Cc3ccccc3)no2)c(O)c1-c1c(OC)cccc1OC ; its EC50: 120 nM

Apelin receptor (Rattus norvegicus) data for CCCCc1[nH]c(=O)c(C(=O)OCC)c(O)c1-c1c(OC)cccc1OC ; its EC50: 980 nM

Apelin receptor (Rattus norvegicus) data for CCCCc1nc(O)c(-c2nnc(Cc3ccc(Cl)cc3)o2)c(O)c1-c1c(OC)cccc1OC ; its EC50: 1.2 nM

----------
Here, each record is paired with measured pEC50 data.
Molecular target: Apelin receptor (Homo sapiens, UniProt P35414)
Sequence (P35414 whole entry): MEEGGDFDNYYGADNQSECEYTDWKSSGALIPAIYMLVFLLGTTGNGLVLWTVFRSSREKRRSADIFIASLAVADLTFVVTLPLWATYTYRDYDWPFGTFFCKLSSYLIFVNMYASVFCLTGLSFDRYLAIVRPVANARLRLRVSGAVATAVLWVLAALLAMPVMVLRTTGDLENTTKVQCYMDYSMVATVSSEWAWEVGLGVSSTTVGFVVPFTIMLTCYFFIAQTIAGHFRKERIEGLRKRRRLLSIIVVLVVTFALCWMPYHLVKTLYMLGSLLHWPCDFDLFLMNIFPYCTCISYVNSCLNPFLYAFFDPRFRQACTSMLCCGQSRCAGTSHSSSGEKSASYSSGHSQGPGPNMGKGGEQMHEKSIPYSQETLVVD
Test: Agonist activity at human APJ receptor expressed in human HEK293 cells assessed as inhibition of forskolin-induced cAMP accumulation incubated for 1 hr by TR-FRET assay
Please express pEC50 as -log10 of the molar concentration.

>>> print(df.to_string())
                        structure_as_smiles                              assay_system  quantity_measured  assay_value
0  CCOCc1nc(O)c(-c2nnc(Cc3ccc(Cl)cc3)o2)c(O)c1-c1c(OC)cccc1OC  Apelin receptor (Homo sapiens, UniProt P35414)              pEC50         9.92
1  CCCCc1nc(O)c(-c2nnc(Cc3ccc(Cl)cc3)o2)c(O)c1-c1c(OC)cccc1OC  Apelin receptor (Homo sapiens, UniProt P35414)              pEC50         9.40

For COc1cccc(OC)c1-c1c(C2CC2)[nH]c(=O)c(-c2nnc(Cc3ccc(Cl)cc3)o2)c1O the molecule record lists pEC50 as 7.96

----------
Here, each record is paired with measured pEC50 data.
Target: Apelin receptor (Homo sapiens, UniProt P35414)
Assay: Agonist activity at human APJ receptor expressed in human HEK293 cells assessed as inhibition of forskolin-induced cAMP accumulation incubated for 1 hr by TR-FRET assay
Please express pEC50 as -log10 of the molar concentration.

>>> print(df.to_string())
                        structure_as_smiles  quantity_measured  assay_value
0  CCCCc1nc(O)c(-c2nnc(Cc3cccc(Cl)c3)o2)c(O)c1-c1c(OC)cccc1OC              pEC50         8.59

For COc1cccc(OC)c1-c1c(C2CCCC2)[nH]c(=O)c(-c2nnc(Cc3ccc(Cl)cc3)o2)c1O the compound record lists pEC50 as 9.62

For CCOCc1[nH]c(=O)c(-c2nnc(Cc3ccc(Cl)nc3)o2)c(O)c1-c1c(OC)cccc1OC the compound record lists pEC50 as 9.77

For CCOCc1nc(O)c(-c2nnc(Cc3ccc(Cl)cn3)o2)c(O)c1-c1c(OC)cccc1OC the compound record lists pEC50 as 10.64

For CCCCc1nc(O)c(-c2nnc(Cc3ccccc3Cl)o2)c(O)c1-c1c(OC)cccc1OC the compound record lists pEC50 as 8.07

----------
Molecular target: Apelin receptor (Homo sapiens, UniProt P35414)
Assay: Displacement of [3H]Apelin-13 from human APJ receptor stably expressed in human HEK293 cell membrane incubated for 120 mins by TopCount scintillation plate reader analysis
Type: cell membranes
quantity_measured: pKi
Please express pKi as -log10 of the molar concentration.

For CCOCc1nc(O)c(-c2nnc(Cc3ccc(Cl)cn3)o2)c(O)c1-c1c(OC)cccc1OC the molecule record lists pKi as 10.13

----------
Experiment: Oral bioavailability in cynomolgus monkey at 3 mg/kg measured measured up to 72 hrs by LC/MS/MS analysis
Format: ADME, organism-based, Macaca fascicularis
Conditions: in vivo
quantity_measured: bioavailability (%)
# unit: % | format: bare number

For CCOCc1nc(O)c(-c2nnc(Cc3ccc(Cl)cn3)o2)c(O)c1-c1c(OC)cccc1OC [BMS-986224] the compound record lists bioavailability as 56

----------
Here, each record is paired with measured remaining at 10 min data.
Assay: Metabolic stability in rat liver microsomes assessed as parent compound remaining incubated for 10 mins in presence of NADPH by triple quadrupole mass spectrometry
Assay type: ADME, Microsome
Conditions: read-out: Stabilty
# unit: % | format: bare number

Recorded remaining at 10 min, per entry:
>>> print(df.to_string())
                        structure_as_smiles  assay_value
0  COCCc1[nH]c(=O)c(-c2nnc(Cc3ccc(Cl)cc3)o2)c(O)c1-c1c(OC)cccc1OC           73
1  CCCCc1[nH]c(=O)c(-c2n[nH]c(Cc3ccccc3)n2)c(O)c1-c1c(OC)cccc1OC           15
2  CCCCc1[nH]c(=O)c(C(=O)OCC)c(O)c1-c1c(OC)cccc1OC           24
3  CCCCc1nc(O)c(-c2nnc(Cc3ccccc3Cl)o2)c(O)c1-c1c(OC)cccc1OC           24

For CCCCc1nc(O)c(-c2nnc(Cc3ccc(Cl)cc3)o2)c(O)c1-c1c(OC)cccc1OC the compound record lists remaining at 10 min as 22

----------
Assay: Metabolic stability in rat liver microsomes assessed as parent compound remaining incubated for 10 mins in presence of NADPH by triple quadrupole mass spectrometry
Format: ADME, Microsome
Details: read-out: Stabilty
quantity_measured: remaining at 10 min (%)
# unit: % | format: bare number

>>> print(df.to_string())
                        structure_as_smiles  assay_value
0  COc1cccc(OC)c1-c1c(C2CC2)[nH]c(=O)c(-c2nnc(Cc3ccc(Cl)cc3)o2)c1O           51
1  CCCCc1nc(O)c(-c2nnc(Cc3cccc(Cl)c3)o2)c(O)c1-c1c(OC)cccc1OC           38
2  CCOCc1nc(O)c(-c2nnc(Cc3ccc(Cl)cc3)o2)c(O)c1-c1c(OC)cccc1OC           74
3  CCCCc1[nH]c(=O)c(-c2nnc(Cc3ccccc3)o2)c(O)c1-c1c(OC)cccc1OC           53
4  CCOCc1nc(O)c(-c2nnc(Cc3ccc(Cl)cn3)o2)c(O)c1-c1c(OC)cccc1OC           92

For COc1cccc(OC)c1-c1c(C2CCCC2)[nH]c(=O)c(-c2nnc(Cc3ccc(Cl)cc3)o2)c1O the compound record lists remaining at 10 min as 66

For CCOCc1[nH]c(=O)c(-c2nnc(Cc3ccc(Cl)nc3)o2)c(O)c1-c1c(OC)cccc1OC the compound record lists remaining at 10 min as 76

For CCCCc1[nH]c(=O)c(-c2nnc(-c3ccc(Cl)cc3)o2)c(O)c1-c1c(OC)cccc1OC the compound record lists remaining at 10 min as 36

For CCCCc1[nH]c(=O)c(-c2nc(Cc3ccccc3)no2)c(O)c1-c1c(OC)cccc1OC the compound record lists remaining at 10 min as 54

----------
Here, each record is paired with measured solubility thermodynamic at 24 h data.
Assay: Solubility of compound in phosphate buffer pH 7.4 using excess solid incubated for 24 hrs under agitation condition by reverse phase LC analysis
Format: physicochemical
# unit: µg/mL | format: bare number

Recorded solubility thermodynamic at 24 h, per entry:
                        structure_as_smiles  unit_symbol  assay_value
0  COCCc1[nH]c(=O)c(-c2nnc(Cc3ccc(Cl)cc3)o2)c(O)c1-c1c(OC)cccc1OC        µg/mL           73
1  CCOCc1nc(O)c(-c2nnc(Cc3ccc(Cl)cc3)o2)c(O)c1-c1c(OC)cccc1OC        µg/mL           26
2  COc1cccc(OC)c1-c1c(C2CC2)[nH]c(=O)c(-c2nnc(Cc3ccc(Cl)cc3)o2)c1O        µg/mL           12
3  CCOCc1nc(O)c(-c2nnc(Cc3ccc(Cl)cn3)o2)c(O)c1-c1c(OC)cccc1OC        µg/mL          220
4  CCOCc1[nH]c(=O)c(-c2nnc(Cc3ccc(Cl)nc3)o2)c(O)c1-c1c(OC)cccc1OC        µg/mL          110

# evaluate next
For COc1cccc(OC)c1-c1c(C2CCCC2)[nH]c(=O)c(-c2nnc(Cc3ccc(Cl)cc3)o2)c1O the molecule record lists solubility thermodynamic at 24 h as 4
